- Tested on: UACC-62
- Format: cell-based
- conditions_used: Homo sapiens, one dose 10^-5 M, 48 h
measurement_kind: % growth at 10 µM

                                 smiles_repr  measurement
 0  CN(C)c1ccc(-c2nc(S)nc(N)c2C(=N)NN=Cc2ccc(Br)cc2)cc1          94%
 1          N#Cc1c(N)nc(S)nc1-c1ccc(Cl)cc1Cl        62.7%
 2  CN(C)c1ccc(-c2cc([N+](=O)[O-])ccc2C=NNC(=N)c2cnc(S)nc2N)cc1         100%
 3  N=C(NN=Cc1ccc([N+](=O)[O-])cc1)c1c(N)nc(S)nc1-c1ccc(Cl)cc1        94.6%
 4  N=C(NN=Cc1ccc(Cl)cc1)c1c(N)nc(S)nc1-c1ccc(Cl)cc1        81.8%
 5         CN(C)c1ccc(-c2nc(S)nc(N)c2C#N)cc1        77.2%
 6  Nc1nc(S)nc(-c2ccc(Cl)cc2Cl)c1-c1ncn[nH]1        95.3%
 7  N=C(NN=Cc1ccc(Br)cc1)c1c(N)nc(S)nc1-c1ccc(Cl)cc1Cl        96.4%
 8  N=C(NN=Cc1ccc(Cl)cc1Cl)c1c(N)nc(S)nc1-c1ccc(Cl)cc1Cl        96.4%
 9            N#Cc1c(N)nc(S)nc1-c1ccc(Cl)cc1        66.8%
10    Nc1nc(S)nc(-c2ccc(Cl)cc2)c1-c1ncn[nH]1        95.9%

* * *

Reported % growth at 10 µM is given for each of the following compounds.
- Test system: SF-539
- Format: cell-based
- conditions_used: Homo sapiens, one dose 10^-5 M, 48 h
measurement_kind: % growth at 10 µM (%)

>>> print(df.to_string())
                                smiles_repr  quantity_unit  measurement
0  CN(C)c1ccc(-c2nc(S)nc(N)c2C(=N)NN=Cc2ccc(Cl)cc2)cc1              %           98
1  CN(C)c1ccc(-c2cc([N+](=O)[O-])ccc2C=NNC(=N)c2cnc(S)nc2N)cc1              %         98.8
2            N#Cc1c(N)nc(S)nc1-c1ccc(Cl)cc1              %         71.9
3  CN(C)c1ccc(-c2nc(S)nc(N)c2C(=N)NN=Cc2ccccc2)cc1              %          106
4  N=C(NN=Cc1ccc([N+](=O)[O-])cc1)c1c(N)nc(S)nc1-c1ccc(Cl)cc1              %         96.7
5  N=C(NN=Cc1ccc([N+](=O)[O-])cc1)c1c(N)nc(S)nc1-c1ccc(Cl)cc1Cl              %         74.7

* * *

- System: A498
- Assay type: cell-based
- conditions_used: Homo sapiens, one dose 10^-5 M, 48 h
measurement_kind: % growth at 10 µM

>>> print(df.to_string())
                                smiles_repr  measurement
0  N=C(NN=Cc1ccc(Br)cc1)c1c(N)nc(S)nc1-c1ccc(Cl)cc1Cl         129%
1  N=C(NN=Cc1ccc([N+](=O)[O-])cc1)c1c(N)nc(S)nc1-c1ccc(Cl)cc1         114%
2  COc1ccc(C=NNC(=N)c2c(N)nc(S)nc2-c2ccc(Cl)cc2)cc1         125%
3  N=C(NN=Cc1ccc(Cl)cc1Cl)c1c(N)nc(S)nc1-c1ccc(Cl)cc1Cl         117%

* * *

% growth at 10 µM by entry:
- Test system: HL-60(TB)
- Assay type: cell-based
- conditions_used: Homo sapiens, one dose 10^-5 M, 48 h
measurement_kind: % growth at 10 µM

>>> print(df.to_string())
                                smiles_repr  measurement
0  COc1ccc(/C=N\NC(=N)c2c(N)nc(S)nc2-c2ccc(N(C)C)cc2)cc1        93.8%
1  COc1ccc(C=NNC(=N)c2c(N)nc(S)nc2-c2ccc(Cl)cc2)cc1         111%
2  CN(C)c1ccc(-c2cc([N+](=O)[O-])ccc2C=NNC(=N)c2cnc(S)nc2N)cc1        96.4%
3  CN(C)c1ccc(-c2nc(S)nc(N)c2C(=N)NN=Cc2ccc(Cl)cc2Cl)cc1        88.4%
4  CN(C)c1ccc(-c2nc(S)nc(N)c2C(=N)NN=Cc2ccc(Cl)cc2)cc1        91.8%
5  N=C(NN=Cc1ccc(Cl)cc1Cl)c1c(N)nc(S)nc1-c1ccc(Cl)cc1         101%

* * *

- Test system: full NCI 60 cell lines panel
- conditions_used: Homo sapiens, 60 cell, 48 h, read-out: Mean % growth
measurement_kind: activity at 10 µM (%)

In [3]: df
Out[3]:
                                smiles_repr  measurement
0  Nc1nc(S)nc(-c2ccc(Cl)cc2Cl)c1-c1ncn[nH]1          100
1  N=C(NN=Cc1ccc(Br)cc1)c1c(N)nc(S)nc1-c1ccc(Cl)cc1         76.8
2  N=C(NN=Cc1ccccc1)c1c(N)nc(S)nc1-c1ccc(Cl)cc1Cl          101
3  CN(C)c1ccc(-c2nc(S)nc(N)c2C(=N)NN=Cc2ccc(Cl)cc2Cl)cc1         98.9
4  CN(C)c1ccc(-c2nc(S)nc(N)c2C(=N)NN=Cc2ccc(Cl)cc2)cc1         98.2
5  N=C(NN=Cc1ccccc1)c1c(N)nc(S)nc1-c1ccc(Cl)cc1         50.8

* * *

Listed here: items and their measured percent cell growth at 10 µM.
- Test system: OVCAR-5
- Type: cell-based
- conditions_used: Homo sapiens, one dose 10^-5 M, 48 h
measurement_kind: percent cell growth at 10 µM (%)

>>> df
                                 smiles_repr  quantity_unit  measurement
 0  CN(C)c1ccc(-c2nc(S)nc(N)c2C(=N)NN=Cc2ccc(Br)cc2)cc1              %          104
 1  COc1ccc(/C=N\NC(=N)c2c(N)nc(S)nc2-c2ccc(N(C)C)cc2)cc1              %          103
 2            N#Cc1c(N)nc(S)nc1-c1ccc(Cl)cc1              %         91.6
 3  CN(C)c1ccc(-c2nc(S)nc(N)c2C(=N)NN=Cc2ccccc2)cc1              %          111
 4  N=C(NN=Cc1ccc([N+](=O)[O-])cc1)c1c(N)nc(S)nc1-c1ccc(Cl)cc1              %          101
 5  N=C(NN=Cc1ccccc1)c1c(N)nc(S)nc1-c1ccc(Cl)cc1              %         80.1
 6  CN(C)c1ccc(-c2nc(S)nc(N)c2-c2ncn[nH]2)cc1              %          120
 7  N=C(NN=Cc1ccccc1)c1c(N)nc(S)nc1-c1ccc(Cl)cc1Cl              %          108
 8  N=C(NN=Cc1ccc(Cl)cc1Cl)c1c(N)nc(S)nc1-c1ccc(Cl)cc1              %         73.2
 9  COc1ccc(C=NNC(=N)c2c(N)nc(S)nc2-c2ccc(Cl)cc2Cl)cc1              %          117
10         CN(C)c1ccc(-c2nc(S)nc(N)c2C#N)cc1              %          108

* * *

The reader will find reported activity at 10 µM values listed item by item below.
- Tested on: SK-MEL-5
- Type: cell-based
- conditions_used: Homo sapiens, one dose 10^-5 M, 48 h, read-out: % growth
measurement_kind: activity at 10 µM (%)

In [3]: df
Out[3]:
                                smiles_repr  measurement
0  N=C(NN=Cc1ccc(Cl)cc1Cl)c1c(N)nc(S)nc1-c1ccc(Cl)cc1           81
1  N=C(NN=Cc1ccc(Cl)cc1Cl)c1c(N)nc(S)nc1-c1ccc(Cl)cc1Cl          107
2  CN(C)c1ccc(-c2nc(S)nc(N)c2C(=N)NN=Cc2ccc(Cl)cc2)cc1         97.6
3  N=C(NN=Cc1ccccc1)c1c(N)nc(S)nc1-c1ccc(Cl)cc1         84.9
4  CN(C)c1ccc(-c2cc([N+](=O)[O-])ccc2C=NNC(=N)c2cnc(S)nc2N)cc1          103
5         CN(C)c1ccc(-c2nc(S)nc(N)c2C#N)cc1         88.7
